B1: Gamma-crystallin C, residues 91 to 170; numbered along this chain, P07315 (parent)
chain: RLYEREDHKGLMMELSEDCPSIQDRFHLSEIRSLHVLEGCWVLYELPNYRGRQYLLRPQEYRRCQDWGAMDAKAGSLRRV

Variants of: B1
Assay: abundance fitness (aPCA) (normalised: wild type 0, dead -1); higher = more abundant; growth selection in yeast, the domain comes from the species named
Conditions: Homo sapiens
Quick reference for abundance fitness among some variants
endpoint name: abundance fitness

1. V36R = -1.08
2. S21C = -0.089
3. G39Y = -0.566
4. I22G = -0.921
5. R52P = -0.093
6. S21G = -0.613
7. G10D = -0.731
8. S21H = -0.184
9. S16N = -0.025
10. E30N = -0.116
11. P58S = -0.202
12. D71P = -0.933
13. Q23V = -0.053
14. R25Y = -0.463
15. G51H = -0.752
16. D7V = -0.936
17. I31E = -0.987
18. N48C = -0.339
19. Y3Q = -0.88
20. M70H = 0.049
21. E45Q = -0.211
22. Q59N = -0.364
